target: TATA-binding protein (TBP) (Homo sapiens, UniProt P20226 1-339); assay: EMSA (kinetic, kd/ka); 20 mM HEPES-KOH pH 7.6, 5 mM MgCl2, 70 mM KCl, 1 mM DTT, 100 ug/ml BSA, 0.01% NP-40, 5% 'XYZ' (so in the source), 25 C; TBP 0.4 nM; gel 5% PAGE Tris-glycine pH 8.3, 10 C; conditions: protein: recombinant; label: 32P; blunt
Sequence (P20226 whole entry): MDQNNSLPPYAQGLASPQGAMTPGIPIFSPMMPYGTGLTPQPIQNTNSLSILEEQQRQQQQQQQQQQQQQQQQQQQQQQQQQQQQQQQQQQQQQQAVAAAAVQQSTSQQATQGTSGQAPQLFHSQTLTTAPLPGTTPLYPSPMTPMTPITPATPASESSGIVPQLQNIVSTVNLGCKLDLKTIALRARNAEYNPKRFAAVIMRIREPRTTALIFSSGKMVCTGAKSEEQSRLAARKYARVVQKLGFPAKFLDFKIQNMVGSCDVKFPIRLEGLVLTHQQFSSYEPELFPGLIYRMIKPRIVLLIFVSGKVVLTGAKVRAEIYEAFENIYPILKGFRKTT
observable: pKd
# reply with the number alone; pKd is -log10 of concentration in mol/L

>>> number("GRIN1 WT (dsDNA) DNA 1: TGGAGGGGGACAAAGACAGGGTGGTG DNA 2: CACCACCCTGTCTTTGTCCCCCTCCA")
6.49
>>> number("NOS1 -27G>A (rs1195040887) (dsDNA) DNA 1: TGTTTCCTGATAAAAAAAAAAAATGG DNA 2: CCATTTTTTTTTTTTATCAGGAAACA")
7.23
>>> number("GRIN1 -34G>A (rs1402667001) (dsDNA) DNA 1: TGGAGGAGGACAAAGACAGGGTGGTG DNA 2: CACCACCCTGTCTTTGTCCTCCTCCA")
6.70

Given the binder NOS1 WT (dsDNA) DNA 1: TGTTTCCTGATAGAAAAAAAAAATGG DNA 2: CCATTTTTTTTTTCTATCAGGAAACA , what is its reported pKd?
7.15

Given the binder ASCL3 WT (dsDNA) DNA 1: TCGAAAAATAAAATAAAATAAAACAT DNA 2: ATGTTTTATTTTATTTTATTTTTCGA , what is its reported pKd?
7.92
